Quick list: IC50 per entry.
Experimental System: FGFR1 (Homo sapiens)
Sequence (P11362 22-822): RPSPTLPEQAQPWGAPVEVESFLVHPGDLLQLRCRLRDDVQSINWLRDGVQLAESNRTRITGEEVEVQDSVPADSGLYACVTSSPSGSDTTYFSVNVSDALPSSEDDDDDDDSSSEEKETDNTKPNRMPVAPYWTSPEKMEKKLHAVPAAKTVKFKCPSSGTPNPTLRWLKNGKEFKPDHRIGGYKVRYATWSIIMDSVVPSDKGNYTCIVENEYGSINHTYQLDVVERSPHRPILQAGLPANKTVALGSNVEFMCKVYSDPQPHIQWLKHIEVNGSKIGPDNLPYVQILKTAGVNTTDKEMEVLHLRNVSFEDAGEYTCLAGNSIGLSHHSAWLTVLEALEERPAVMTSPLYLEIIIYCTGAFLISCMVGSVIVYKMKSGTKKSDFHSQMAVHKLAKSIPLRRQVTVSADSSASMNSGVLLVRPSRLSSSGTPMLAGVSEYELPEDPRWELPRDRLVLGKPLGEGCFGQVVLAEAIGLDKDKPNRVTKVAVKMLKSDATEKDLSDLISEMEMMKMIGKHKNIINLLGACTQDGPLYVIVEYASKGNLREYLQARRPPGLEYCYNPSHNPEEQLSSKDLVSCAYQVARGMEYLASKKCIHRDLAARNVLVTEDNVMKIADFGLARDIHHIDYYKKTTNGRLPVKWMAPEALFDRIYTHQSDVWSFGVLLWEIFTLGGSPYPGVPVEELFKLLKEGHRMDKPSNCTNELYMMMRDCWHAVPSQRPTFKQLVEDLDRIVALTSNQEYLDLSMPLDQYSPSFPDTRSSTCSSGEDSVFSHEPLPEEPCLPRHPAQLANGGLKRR
Assay Explanation: FGFR1 kinase activity inhibition (Caliper mobility shift assay)
Assay type: biochemical
Reported Conditions: read-out: FGFR kinase activity inhibition (IC50, nM) FGFR1

Example molecules with recorded IC50:
COc1cc(OC)c(Cl)c(NC(=O)N(C)c2cc(Nc3ccc4c(c3)OC[C@H]3COCCN43)ncn2)c1Cl [Compound 8R] : < 20 nM
COc1cc(OC)c(Cl)c(NC(=O)N(C)c2cc(Nc3ccc4c(c3)OC[C@H]3CN(C5CC5)CCN43)ncn2)c1Cl [Compound 6R] : < 20 nM
COc1cc(OC)c(Cl)c(NC(=O)N(C)c2cc(Nc3ccc(N4CC5CN(C)CC(C4)C5(F)F)cc3)ncn2)c1Cl [Compound 3] : < 10 nM
COc1cc(OC)c(Cl)c(NC(=O)N(C)c2cc(Nc3ccc4c(c3)OC[C@H]3CN(C)CC(=O)N43)ncn2)c1Cl [Compound 9R] : < 10 nM
COc1cc(OC)c(Cl)c(NC(=O)N(C)c2cc(Nc3ccc4c(c3)OCC3CN(C)CCN43)ncn2)c1Cl (centres unmarked) [Compound 2] : < 10 nM

Tell me the measured IC50 of C=CC(=O)Nc1ccc(CN(C(=O)Nc2c(Cl)c(OC)cc(OC)c2Cl)c2cc(Nc3ccc4c(c3)OC[C@@H]3CN(C)CCN43)ncn2)cc1 [Compound 11S] , please.
< 50 nM

Next entry: COc1cc(OC)c(Cl)c(NC(=O)N(C)c2cc(Nc3ccc4c(c3)OC[C@@H]3CN(C)CCN43)ncn2)c1Cl [Compound 2S]
< 10 nM

Next entry: CCS(=O)(=O)N1CCN2c3ccc(Nc4cc(N(C)C(=O)Nc5c(Cl)c(OC)cc(OC)c5Cl)ncn4)cc3OC[C@H]2C1 [Compound 10R]
< 50 nM

Next entry: COc1cc(OC)c(Cl)c(NC(=O)N(C)c2cc(Nc3ccc4c(c3)OC[C@H]3CN(C)CCN43)ncn2)c1Cl [Compound 2R]
< 10 nM

Next entry: C=CC(=O)Nc1cc2c(cc1Nc1cc(N(C)C(=O)Nc3c(Cl)c(OC)cc(OC)c3Cl)ncn1)OC[C@@H]1CN(C)CCN21 [Compound 5S]
> 1000 nM
